System: NoV VA115 P dimer
experimentSummary: Direct ESI-MS assay, NoV VA115 P dimer
Set-up: species or system human NoV VA115 (GI.3)
cond: intrinsic (per binding site) association constant; aqueous ammonium acetate (200 mM), pH 7, 25 °C
Hi there, I'd appreciate the recorded Ka,int P dimer VA115 for every entry that follows.
Numbers only, in M^–1.

[[record]]
compound = "CC(=O)N[C@H]1[C@H](O[C@@H]2[C@H](O[C@]3(C(=O)O)C[C@H](O)[C@@H](NC(C)=O)[C@H]([C@H](O)[C@H](O)CO)O3)[C@@H](O)[C@H](O[C@H]3[C@H](O)[C@@H](O)C(O)O[C@@H]3CO)O[C@@H]2CO)O[C@H](CO)[C@H](O)[C@@H]1O (stereo partly drawn)"
targetorsystem = "NoV VA115 P dimer"
unitslabel = "M^–1"
observedmeasurement = 700


Working through the 4 compounds below one at a time, give Ka,int P dimer VA115 for each.
1. CC(=O)NC1C(O)CC(OC2C(O)C(OC3C(CO)OC(O)C(O)C3O)OC(CO)C2OC2OC(CO)C(O)C(OC3OC(CO)C(O)C(O)C3OC3OC(C)C(O)C(O)C3O)C2NC(C)=O)(C(=O)O)OC1C(O)C(O)CO (stereo not drawn)
2. CC(=O)N[C@H]1[C@H](O[C@@H]2[C@H](O[C@]3(C(=O)O)C[C@H](O)[C@@H](NC(C)=O)[C@H]([C@H](O)[C@@H](CO)O[C@]4(C(=O)O)C[C@H](O)[C@@H](NC(C)=O)[C@H]([C@H](O)[C@@H](CO)O[C@]5(C(=O)O)C[C@H](O)[C@@H](NC(C)=O)[C@H]([C@H](O)[C@H](O)CO)O5)O4)O3)[C@@H](O)[C@H](O[C@H]3[C@H](O)[C@@H](O)C(O)O[C@@H]3CO)O[C@@H]2CO)O[C@H](CO)[C@H](O)[C@@H]1O[C@@H]1O[C@H](CO)[C@H](O)[C@H](O)[C@H]1O (stereo partly drawn)
3. CC(=O)N[C@H]1[C@H](O[C@@H]2[C@H](O[C@]3(C(=O)O)C[C@H](O)[C@@H](NC(C)=O)[C@H]([C@H](O)[C@H](O)CO)O3)[C@@H](O)[C@H](O[C@H]3[C@H](O)[C@@H](O)C(O)O[C@@H]3CO)O[C@@H]2CO)O[C@H](CO)[C@H](O)[C@@H]1O[C@@H]1O[C@H](CO)[C@H](O)[C@H](O[C@]2(C(=O)O)C[C@H](O)[C@@H](NC(C)=O)[C@H]([C@H](O)[C@@H](CO)O[C@]3(C(=O)O)C[C@H](O)[C@@H](NC(C)=O)[C@H]([C@H](O)[C@H](O)CO)O3)O2)[C@H]1O (stereo partly drawn)
4. CC(=O)N[C@H]1[C@H](O[C@@H]2[C@H](O[C@]3(C(=O)O)C[C@H](O)[C@@H](NC(C)=O)[C@H]([C@H](O)[C@H](O)CO)O3)[C@@H](O)[C@H](O[C@H]3[C@H](O)[C@@H](O)C(O)O[C@@H]3CO)O[C@@H]2CO)O[C@H](CO)[C@H](O)[C@@H]1O[C@@H]1O[C@H](CO)[C@H](O)[C@H](O)[C@H]1O (stereo partly drawn)

1: 600; 2: 260; 3: 210; 4: 400

// query Ka,int P dimer VA115 value for entry CC(=O)N[C@H]1[C@H](O[C@@H]2[C@H](O[C@]3(C(=O)O)C[C@H](O)[C@@H](NC(C)=O)[C@H]([C@H](O)[C@@H](CO)O[C@]4(C(=O)O)C[C@H](O)[C@@H](NC(C)=O)[C@H]([C@H](O)[C@H](O)CO)O4)O3)[C@@H](O)[C@H](O[C@H]3[C@H](O)[C@@H](O)C(O)O[C@@H]3CO)O[C@@H]2CO)O[C@H](CO)[C@H](O)[C@@H]1O (stereo partly drawn)
700
